# SYSTEM UNDER TEST: Cyclic GMP-AMP synthase (Homo sapiens, UniProt Q8N884)
# Sequence (Q8N884 whole entry): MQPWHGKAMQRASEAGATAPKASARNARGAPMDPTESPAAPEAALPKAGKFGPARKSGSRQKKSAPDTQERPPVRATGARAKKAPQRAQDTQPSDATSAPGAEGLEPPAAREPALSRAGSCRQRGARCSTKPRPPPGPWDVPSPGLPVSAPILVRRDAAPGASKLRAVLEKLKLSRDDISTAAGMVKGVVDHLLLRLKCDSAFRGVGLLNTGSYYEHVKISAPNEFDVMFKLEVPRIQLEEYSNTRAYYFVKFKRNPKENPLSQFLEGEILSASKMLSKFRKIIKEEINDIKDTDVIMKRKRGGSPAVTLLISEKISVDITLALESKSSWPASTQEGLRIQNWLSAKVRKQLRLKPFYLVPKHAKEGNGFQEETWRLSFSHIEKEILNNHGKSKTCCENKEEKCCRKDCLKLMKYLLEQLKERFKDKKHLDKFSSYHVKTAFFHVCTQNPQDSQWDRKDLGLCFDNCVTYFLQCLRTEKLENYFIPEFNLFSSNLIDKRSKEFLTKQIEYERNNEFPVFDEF
# TEST DETAILS: Biochemical Assay
pIC50: −log10 of the molar value.
PARAMETER: pIC50

(A) COc1cc2c(-n3ccnc3)c(-c3nnc(C(=O)N(C)C)[nH]3)n(C)c2c(C#N)c1C#N [US12404261, Example 120]
(B) FC(F)(F)c1nnc(-c2[nH]c3cc(Cl)c(OC4CC4)cc3c2-n2ccnc2)[nH]1 [US12404261, Example 113]
(C) Cn1c(-c2nnc(C(F)(F)F)[nH]2)c(-n2ccnc2)c2cc(O)c(Cl)cc21 [US12404261, Example 115]
IN: Rank items: key pIC50, increasing. Could you list the labels in the order requested?
OUT: B, A, C
(B: 6.06, A: 6.76, C: 7.17)
